assay: Rate of hydrolysis in homogenized stomach contents; settings: 1.0 mM prodrug, 37 C, release of free steroid by HPLC
Kindly supply the reported Sp. act. values for the records listed here.
Please state the figure in nmoles/min/g wet weight; there is no need to write the unit.

Quick one: Sp. act. of CC12C=CC(=O)C=C1CCC1C2C(O)CC2(C)C1CCC2(O)C(=O)COC1OC(CO)C(OC2OC(CO)C(O)C(O)C2O)C(O)C1O (stereo not drawn) ?
7.5

Quick one: Sp. act. of CC12CCC(=O)C=C1CCC1C2C(O)CC2(C)C1CCC2(O)C(=O)COC1OC(CO)C(O)C(O)C1O (stereo not drawn) [Compound 11] ?
12.5

Quick one: Sp. act. of CC12CCC(=O)C=C1CCC1C3CCC(O)(C(=O)COC4OC(CO)C(O)C(O)C4O)C3(C)CC(O)C12F (stereo not drawn) [Compound 12] ?
7.0
